# Test system: SK-OV-3 multi-cell spheroids, viability
# ASSAY_PROTOCOL: Anticancer human tumor SK-OV-3 cell line growth inhibition [IpAb]; active = viability on the fitted dose curve at most 10% of control; inactive = the rest;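 also: viability read after seven days of drug exposure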
# TEST_CONTEXT: second compound 0.1 µM; first compound 3 µM
Respond with a class label; see True for active, False for inactive

input: I'd appreciate the recorded outcome for CC(C)(C)c1cnc(CSc2cnc(NC(=O)C3CCNCC3)s2)o1 + CC(C)NCC(C(=O)N1CCN(c2ncnc3c2C(C)CC3O)CC1)c1ccc(Cl)cc1 from this test.
output: True

input: I'd appreciate the recorded outcome for Cn1cnc2c(F)c(Nc3ccc(Br)cc3Cl)c(C(=O)NOCCO)cc21 + CCN1CCN(Cc2ccc(Nc3ncc(F)c(-c4cc(F)c5nc(C)n(C(C)C)c5c4)n3)nc2)CC1 from this test.
output: False

input: I'd appreciate the recorded outcome for CC(C)(C)c1cnc(CSc2cnc(NC(=O)C3CCNCC3)s2)o1 + CCN1CCN(Cc2ccc(Nc3ncc(F)c(-c4cc(F)c5nc(C)n(C(C)C)c5c4)n3)nc2)CC1 from this test.
output: True

input: I'd appreciate the recorded outcome for Cn1cnc2c(F)c(Nc3ccc(Br)cc3Cl)c(C(=O)NOCCO)cc21 + CC(C)NCC(C(=O)N1CCN(c2ncnc3c2C(C)CC3O)CC1)c1ccc(Cl)cc1 from this test.
output: False
